Data provenance: ChEMBL document CHEMBL1124484

- subject-of-test: Adenosine A2 receptor (Rattus norvegicus, UniProt P29276+P30543)
- assay-context: pc-12
- Description: Inhibition of the stimulation by 5'-(N-ethylcarbamoyl) adenosine of adenyl cyclase via Adenosine A2 receptor in rat PC12 membranes
Each record gets a class by Ki: bucket 1: < 1 µM; bucket 2: ≥ 1 µM and < 6 µM; bucket 3: ≥ 6 µM

>>> assigned_label("Cn1c(=O)c2nc(-c3ccc(S(=O)(=O)O)cc3)[nH]c2n(C)c1=O")
"bucket 2"
>>> assigned_label("Cn1c(=O)[nH]c2[nH]c(-c3ccccc3)nc2c1=O")
"bucket 1"
>>> assigned_label("Cn1c(=O)c2nc(C3CCCCC3)[nH]c2n(C)c1=O")
"bucket 1"
>>> assigned_label("Cn1c(=O)c2nc(-c3ccccc3)[nH]c2n(C)c1=O [8-PHENYL THEOPHYLLINE]")
"bucket 2"
>>> assigned_label("Cn1c(=O)c2c(nc(-c3ccc(S(=O)(=O)O)cc3)n2C)n(C)c1=O")
"bucket 3"
>>> assigned_label("Cn1c(=O)c2c(nc(C3CCCC3)n2C)n(C)c1=O")
"bucket 2"
>>> assigned_label("CCCn1c(=O)[nH]c2[nH]c(-c3ccccc3)nc2c1=O")
"bucket 1"
>>> assigned_label("CCCn1c(=O)c2c(nc(-c3ccc(S(=O)(=O)O)cc3)n2C)n(CCC)c1=O")
"bucket 2"
>>> assigned_label("CCCn1c(=O)c2nc(-c3ccc(S(=O)(=O)O)cc3)[nH]c2n(CCC)c1=O")
"bucket 3"
>>> assigned_label("CCCn1c(=O)c2c(ncn2C)n(CCC)c1=O")
"bucket 2"
>>> assigned_label("CCCn1c(=O)[nH]c(=O)c2[nH]c(-c3ccc(S(=O)(=O)O)cc3)nc21")
"bucket 3"

* * *

- subject-of-test: Adenosine receptor A1 (Rattus norvegicus)
- Sequence (P25099 whole entry): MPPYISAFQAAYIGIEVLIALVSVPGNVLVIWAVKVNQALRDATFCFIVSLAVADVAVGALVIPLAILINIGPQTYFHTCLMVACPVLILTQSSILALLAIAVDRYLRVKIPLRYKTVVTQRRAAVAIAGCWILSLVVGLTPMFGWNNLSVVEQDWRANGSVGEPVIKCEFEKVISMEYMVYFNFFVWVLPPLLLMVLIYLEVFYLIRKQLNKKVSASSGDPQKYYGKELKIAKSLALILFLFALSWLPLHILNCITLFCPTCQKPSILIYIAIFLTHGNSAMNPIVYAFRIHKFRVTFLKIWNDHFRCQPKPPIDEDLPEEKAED
- protocol-notes: Inhibition of 1 nM [3H]- N6-(phenylisopropyl) adenosine binding to Adenosine A1 receptor in rat cerebral cortical membranes
- Type: cell membranes, Membrane
endpoint: Ki (µM)

>>> observed_value("CCCn1c(=O)c2nc(-c3ccc(S(=O)(=O)O)cc3)[nH]c2n(CCC)c1=O")
0.14
>>> observed_value("CCCn1c(=O)[nH]c(=O)c2[nH]c(-c3ccc(C(=O)O)cc3)nc21")
57
>>> observed_value("CCCn1c(=O)[nH]c(=O)c2[nH]c(-c3ccccc3)nc21")
9.8
>>> observed_value("CCCn1c(=O)c2c(nc(-c3ccccc3)n2C)n(CCC)c1=O")
2.3
>>> observed_value("CC(C)CCn1c(=O)c2nc[nH]c2n(CC(C)C)c1=O")
1.6
>>> observed_value("CC(C)CCn1c(=O)c2nc(-c3ccc(S(=O)(=O)O)cc3)[nH]c2n(CC(C)C)c1=O")
1.2
>>> observed_value("CCCn1c(=O)c2c(nc(-c3ccc(S(=O)(=O)O)cc3)n2C)n(CCC)c1=O")
15
>>> observed_value("COC(=O)c1ccc(-c2nc3c(c(=O)n(C)c(=O)n3C)n2C)cc1")
43
>>> observed_value("CCCn1c(=O)c2c(ncn2C)n(CCC)c1=O")
3.4
>>> observed_value("CCCn1c(=O)[nH]c(=O)c2[nH]c(-c3ccc(S(=O)(=O)O)cc3)nc21")
58
>>> observed_value("Cn1c(=O)c2c(nc(C3CCCC3)n2C)n(C)c1=O")
33
>>> observed_value("CCCn1c(=O)c2nc(-c3ccc(C(=O)O)cc3)[nH]c2n(CCC)c1=O")
0.2
>>> observed_value("Cn1c(=O)c2c(nc(-c3ccc(C(=O)O)cc3)n2C)n(C)c1=O")
61
>>> observed_value("CCCn1c(=O)c2nc[nH]c2n(CCC)c1=O")
0.71
>>> observed_value("CCCn1c(=O)c2c(nc(-c3ccc(C(=O)O)cc3)n2C)n(CCC)c1=O")
4.8
>>> observed_value("Cn1c(=O)c2c(nc(-c3ccccc3)n2C)n(C)c1=O")
15
>>> observed_value("CCCn1c(=O)[nH]c(=O)c2[nH]c(C3CCCCC3)nc21")
0.85
>>> observed_value("CCCn1c(=O)c2c(nc(-c3ccc(C(=O)OC)cc3)n2C)n(CCC)c1=O")
3.1
>>> observed_value("Cn1c(=O)[nH]c(=O)c2[nH]cnc21")
35
>>> observed_value("Cn1c(=O)c2nc(C3CCCCC3)[nH]c2n(C)c1=O")
0.11
>>> observed_value("CCCn1c(=O)[nH]c2[nH]c(-c3ccccc3)nc2c1=O")
0.067

* * *

- subject-of-test: Adenosine receptor A1 (Rattus norvegicus)
- Sequence (P25099 whole entry): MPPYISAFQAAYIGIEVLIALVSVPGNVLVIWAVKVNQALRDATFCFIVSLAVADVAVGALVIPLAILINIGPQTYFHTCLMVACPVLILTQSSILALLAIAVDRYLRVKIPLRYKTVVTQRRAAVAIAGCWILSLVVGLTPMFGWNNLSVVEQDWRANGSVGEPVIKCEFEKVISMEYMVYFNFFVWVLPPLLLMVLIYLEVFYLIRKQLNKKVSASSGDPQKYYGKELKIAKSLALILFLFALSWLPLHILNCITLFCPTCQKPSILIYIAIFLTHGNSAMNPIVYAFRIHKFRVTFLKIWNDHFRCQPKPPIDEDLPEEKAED
- protocol-notes: Inhibition of […] nM [3H]- N6- (phenylisopropyl) adenosine binding to A1 adenosine receptor in rat cerebral cortical membranes
- Format: cell membranes, Membrane
endpoint: Ki (µM)

>>> observed_value("Cn1c(=O)[nH]c2[nH]c(-c3ccccc3)nc2c1=O")
0.3

* * *

- subject-of-test: Adenosine receptor A1 (Rattus norvegicus)
- protocol-notes: Inhibition of 1 nM [3H]- N6 -(phenylisopropyl) adenosine binding to Adenosine A1 receptor in rat fat cell membrane
- Assay type: cell-based
endpoint: log10 Ki (log10 of the value in nM)

>>> observed_value("Cn1c(=O)c2c(nc(C3CCCC3)n2C)n(C)c1=O")
4.17
>>> observed_value("CCCn1c(=O)c2nc[nH]c2n(CCC)c1=O")
3.20
>>> observed_value("CCCn1c(=O)c2c(nc(-c3ccc(S(=O)(=O)O)cc3)n2C)n(CCC)c1=O")
3.69
>>> observed_value("Cn1c(=O)c2nc(C3CCCCC3)[nH]c2n(C)c1=O")
1.61
>>> observed_value("CCCn1c(=O)c2c(nc(C3CCCCC3)n2C)n(CCC)c1=O")
3.62
>>> observed_value("CCCn1c(=O)c2[nH]c(-c3ccccc3)nc2n(CCC)c1=O")
0.77
>>> observed_value("CCCn1c(=O)[nH]c(=O)c2[nH]c(-c3ccc(S(=O)(=O)O)cc3)nc21")
4.52
>>> observed_value("CCCn1c(=O)c2c(ncn2C)n(CCC)c1=O")
4.08
>>> observed_value("CCCn1c(=O)c2nc(-c3ccc(S(=O)(=O)O)cc3)[nH]c2n(CCC)c1=O")
2.63
>>> observed_value("CCCn1c(=O)[nH]c2[nH]c(-c3ccccc3)nc2c1=O")
1.56

* * *

System: Adenosine A2 receptor (Homo sapiens, UniProt P29275+P29274) | Read-out: Ki
endpoint: Ki (µM)

>>> observed_value("CCCn1c(=O)c2c(nc(-c3ccc(C(=O)O)cc3)n2C)n(CCC)c1=O")
13
>>> observed_value("CC(C)CCn1c(=O)c2nc(-c3ccccc3)[nH]c2n(CC(C)C)c1=O")
2.3
>>> observed_value("Cn1c(=O)c2nc(-c3ccc(S(=O)(=O)O)cc3)[nH]c2n(C)c1=O")
5.5
>>> observed_value("CCCn1c(=O)[nH]c2[nH]c(-c3ccccc3)nc2c1=O")
0.02
>>> observed_value("Cn1c(=O)c2nc(-c3ccc(C(=O)O)cc3)[nH]c2n(C)c1=O")
1.5
>>> observed_value("Cn1c(=O)c2c(nc(-c3ccc(C(=O)O)cc3)n2C)n(C)c1=O")
150
>>> observed_value("Cn1c(=O)[nH]c(=O)c2[nH]cnc21")
240
>>> observed_value("CCCn1c(=O)c2c(nc(C3CCCC3)n2C)n(CCC)c1=O")
0.22
>>> observed_value("Cn1c(=O)c2nc(-c3ccccc3)[nH]c2n(C)c1=O")
1.9
>>> observed_value("CCCn1c(=O)c2c(nc(-c3ccc(C(=O)OC)cc3)n2C)n(CCC)c1=O")
26
